# Test system: Staphylococcus aureus FDA 209PJc-1
# Test: Antibacterial activity, agar-dilution MIC, organism No. 1
# Assay type: cell-based
# Measurement Setup: Staphylococcus aureus, FDA209PJC1; Organism No. 1, bouillon-agar; read-out: Minimum Inhibitory Concentration

# Compound, Value Prefix, MIC, µg/mL
data = [
    ("[C-]#[N+]C12CC3(/C=C/C(=O)N[C@@H](CCC(=O)OC)C(=O)OC)OC3C1O2 (stereo partly drawn) [Compound No. 26]", "=", 25),
    ("[C-]#[N+]C12CC3(/C=C/C(=O)Nc4ccc5c(c4)OCO5)OC3C1O2 (stereo not drawn) [compound 64]", "=", 0.2),
    ("[C-]#[N+]C12CC3(/C=C/C(=O)Nc4cc(C(=O)OC)ccc4OC)OC3C1O2 (stereo not drawn) [compound 77]", ">", 200),
    ("[C-]#[N+]C12CC3(/C=C/C(=O)N[C@@H](CC(=O)OCc4ccccc4)C(=O)OCc4ccccc4)OC3C1O2 (stereo partly drawn) [Compound No. 29]", "<", 1.56),
    ("[C-]#[N+]C12CC3(/C=C/C(=O)Nc4cccc(N)c4)OC3C1O2 (stereo not drawn) [compound 60]", "=", 3.13),
    ("[C-]#[N+]C12CC3(/C=C/C(=O)Nc4ccc5c(c4)CCC5)OC3C1O2 (stereo not drawn) [compound 75]", "=", 0.39),
]

###

# Tested on: Proteus mirabilis IFO 3849
# Test: Antibacterial activity, agar-dilution MIC, organism No. 19
# Type: cell-based
# Measurement Setup: Proteus mirabilis, IFO3849; Organism No. 19, bouillon-agar; read-out: Minimum Inhibitory Concentration
Reported Metric: MIC

# Molecule, Reported Metric, Experimental Result
records = [
    ("[C-]#[N+]C12CC3(/C=C/C(=O)Nc4cccc(O)c4)OC3C1O2 (centres unmarked) [compound 57]", "MIC", "6.25 µg/mL"),
    ("[C-]#[N+]C12CC3(/C=C/C(=O)OCc4ccccc4[N+](=O)[O-])OC3C1O2 (centres unmarked) [compound 13]", "MIC", "> 200 µg/mL"),
    ("[C-]#[N+]C12CC3(/C=C/C(=O)Nc4ccc(Br)cc4)OC3C1O2 (centres unmarked) [compound 44]", "MIC", "> 200 µg/mL"),
    ("[C-]#[N+]C12CC3(/C=C/C(=O)Nc4ccc(C(F)(F)F)cc4)OC3C1O2 (centres unmarked) [compound 46]", "MIC", "> 200 µg/mL"),
    ("[C-]#[N+]C12CC3(/C=C/C(=O)OCc4c(C)cc(C)cc4C)OC3C1O2 (centres unmarked) [compound 11]", "MIC", "12.5 µg/mL"),
    ("[C-]#[N+]C12CC3(/C=C/C(=O)OCC(=O)c4ccc([N+](=O)[O-])cc4)OC3C1O2 (centres unmarked) [compound 8]", "MIC", "100 µg/mL"),
    ("[C-]#[N+]C12CC3(/C=C/C(=O)OCC(C)C)OC3C1O2 (centres unmarked) [compound 18]", "MIC", "6.25 µg/mL"),
    ("[C-]#[N+]C12CC3(/C=C/C(=O)NCc4ccccc4)OC3C1O2 (centres unmarked) [Compound No. 24]", "MIC", "12.5 µg/mL"),
    ("[C-]#[N+]C12CC3(/C=C/C(=O)OCC(=O)c4ccc(Cl)cc4)OC3C1O2 (centres unmarked) [compound 5]", "MIC", "100 µg/mL"),
    ("[C-]#[N+]C12CC3(/C=C/C(=O)Nc4cccc(OC)c4)OC3C1O2 (centres unmarked) [compound 54]", "MIC", "> 200 µg/mL"),
    ("[C-]#[N+]C12CC3(/C=C/C(=O)Nc4cccc(C(=O)O)c4)OC3C1O2 (centres unmarked) [compound 52]", "MIC", "> 200 µg/mL"),
    ("[C-]#[N+]C12CC3(/C=C/C(=O)NC4C(=O)N5C4SC(C)(C)C5C(=O)OCC(=O)c4ccc(Br)cc4)OC3C1O2 (centres unmarked) [Compound No. 33]", "MIC", "> 200 µg/mL"),
    ("[C-]#[N+]C12CC3(/C=C/C(=O)N[C@@H](CCC(=O)OC)C(=O)OC)OC3C1O2 (some centres unmarked) [Compound No. 26]", "MIC", "> 200 µg/mL"),
    ("[C-]#[N+]C12CC3(/C=C/C(=O)Nc4ccc(C(=O)O)cc4)OC3C1O2 (centres unmarked) [compound 51]", "MIC", "> 200 µg/mL"),
    ("[C-]#[N+]C12CC3(/C=C/C(=O)NC4C(=O)N5C(C(=O)OCC(=O)c6ccc(Br)cc6)=C(C)CSC45)OC3C1O2 (centres unmarked) [compound 34]", "MIC", "> 100 µg/mL"),
    ("[C-]#[N+]C12CC3(/C=C/C(=O)OCc4cccc([N+](=O)[O-])c4)OC3C1O2 (centres unmarked) [compound 14]", "MIC", "> 200 µg/mL"),
    ("[C-]#[N+]C12CC3(/C=C/C(=O)NC4=NCCS4)OC3C1O2 (centres unmarked) [compound 66]", "MIC", "200 µg/mL"),
    ("[C-]#[N+]C12CC3(/C=C/C(=O)ON4C(=O)CCC4=O)OC3C1O2 (centres unmarked) [Compound No. 9]", "MIC", "200 µg/mL"),
    ("[C-]#[N+]C12CC3(/C=C/C(=O)OC)OC3C1O2 (centres unmarked) [Compound No. 1]", "MIC", "6.25 µg/mL"),
    ("[C-]#[N+]C12CC3(/C=C/C(=O)Nc4ccc(N)cc4)OC3C1O2 (centres unmarked) [compound 59]", "MIC", "> 200 µg/mL"),
    ("[C-]#[N+]C12CC3(/C=C/C(=O)N[C@@H](CC(=O)OCc4ccccc4)C(=O)OCc4ccccc4)OC3C1O2 (some centres unmarked) [Compound No. 29]", "MIC", "> 200 µg/mL"),
    ("[C-]#[N+]C12CC3(/C=C/C(=O)Nc4cc(C(=O)OC)ccc4OC)OC3C1O2 (centres unmarked) [compound 77]", "MIC", "> 200 µg/mL"),
    ("[C-]#[N+]C12CC3(/C=C/C(=O)Nc4ccc(C)cc4)OC3C1O2 (centres unmarked) [compound 37]", "MIC", "200 µg/mL"),
    ("[C-]#[N+]C12CC3(/C=C/C(=O)N4CCN(C)CC4)OC3C1O2 (centres unmarked) [compound 23]", "MIC", "> 200 µg/mL"),
    ("[C-]#[N+]C12CC3(/C=C/C(=O)Nc4ccc(C(C)=O)cc4)OC3C1O2 (centres unmarked) [compound 80]", "MIC", "> 200 µg/mL"),
    ("[C-]#[N+]C12CC3(/C=C/C(=O)Nc4ccc5c(c4)OCO5)OC3C1O2 (centres unmarked) [compound 64]", "MIC", "> 200 µg/mL"),
]
